Where these numbers come from: patent US10927096B2

- TARGET: NaV1.7 (Homo sapiens)
- Construct: expressed in transfected cells; host or cells: HEK293, tetracycline-inducible
- ASSAY REMARKS: Automated patch clamp (Qube 384), internal block of NaV1.7 in HEK293 cells
- Format: cell-based
- APPLIED CONDITIONS: compound in internal solution, read-out: NaV1.7 Intracellular Inhibition
PROPERTY: IC50

CCC(C(=O)Nc1c(C)cccc1C(=O)OC)[N+]1(Cc2ccccc2)CCCCC1 (stereo not drawn): 1000 to 3000 nM

Could you tell me IC50 for each of these compounds? They are listed below.
1. CCCCOC(=O)C1CCC[N+](CC)(CC(=O)Nc2c(C)cccc2C(=O)OC)C1.[I-] (mixture of isomers)
2. CC[N+]1(CC(=O)Nc2c(C)cccc2C(=O)OC)CCCC(C(=O)NC2CCCC2)C1 (mixture of isomers)
3. CCCCOC(=O)C1CCC[N+](CC(=O)Nc2c(C)cccc2C(=O)OC)(Cc2ccccc2)C1.[Br-] (mixture of isomers)
4. CC[N+]1(CC(=O)Nc2c(C)cccc2C(=O)OC)CCCC(C(=O)OC2CCCCC2)C1 (mixture of isomers)
5. CCc1cccc(C[N+]2(C(CC)C(=O)Nc3c(C)cccc3C(=O)OC)CCCCC2)c1.O=C[O-] (stereo not drawn)

1: 1000 to 3000 nM; 2: 1000 to 3000 nM; 3: 1000 to 3000 nM; 4: 1000 to 3000 nM; 5: 3000 to 10000 nM

Give IC50 for each listed item.
1. COC(=O)c1cccc(C)c1NC(=O)C[N+]1(Cc2ccccc2)CCCC(C(=O)OCC(C)C)C1 (mixture of isomers)
2. COC(=O)c1cccc(C)c1NC(=O)C[n+]1cccc(-c2ccccc2)c1.[Br-]
3. CC[N+]1(CC(=O)Nc2c(C)cccc2C(=O)OC)CCCC(C(=O)OCC(C)C)C1.[I-] (stereo not drawn)
4. COC(=O)c1cccc(C)c1NC(=O)C[N+]1(Cc2ccccc2)CCCCC1.[Br-]
5. CCOC(=O)C1CCC[N+](CC(=O)Nc2c(C)cccc2C(=O)OC)(Cc2ccccc2)C1 (mixture of isomers)
6. COC(=O)c1cccc(C)c1NC(=O)C[N+]1(CC(=O)N(C)C)CCCC(c2ccccc2)C1.O=C([O-])C(F)(F)F (stereo not drawn)

1: 1000 to 3000 nM; 2: < 1000 nM; 3: < 1000 nM; 4: 1000 to 3000 nM; 5: < 1000 nM; 6: < 1000 nM

###

- TARGET: NaV1.7 (Homo sapiens, UniProt Q15858)
- Construct: expressed in transfected cells; host or cells: HEK293, tetracycline-inducible
- Sequence (Q15858 whole entry): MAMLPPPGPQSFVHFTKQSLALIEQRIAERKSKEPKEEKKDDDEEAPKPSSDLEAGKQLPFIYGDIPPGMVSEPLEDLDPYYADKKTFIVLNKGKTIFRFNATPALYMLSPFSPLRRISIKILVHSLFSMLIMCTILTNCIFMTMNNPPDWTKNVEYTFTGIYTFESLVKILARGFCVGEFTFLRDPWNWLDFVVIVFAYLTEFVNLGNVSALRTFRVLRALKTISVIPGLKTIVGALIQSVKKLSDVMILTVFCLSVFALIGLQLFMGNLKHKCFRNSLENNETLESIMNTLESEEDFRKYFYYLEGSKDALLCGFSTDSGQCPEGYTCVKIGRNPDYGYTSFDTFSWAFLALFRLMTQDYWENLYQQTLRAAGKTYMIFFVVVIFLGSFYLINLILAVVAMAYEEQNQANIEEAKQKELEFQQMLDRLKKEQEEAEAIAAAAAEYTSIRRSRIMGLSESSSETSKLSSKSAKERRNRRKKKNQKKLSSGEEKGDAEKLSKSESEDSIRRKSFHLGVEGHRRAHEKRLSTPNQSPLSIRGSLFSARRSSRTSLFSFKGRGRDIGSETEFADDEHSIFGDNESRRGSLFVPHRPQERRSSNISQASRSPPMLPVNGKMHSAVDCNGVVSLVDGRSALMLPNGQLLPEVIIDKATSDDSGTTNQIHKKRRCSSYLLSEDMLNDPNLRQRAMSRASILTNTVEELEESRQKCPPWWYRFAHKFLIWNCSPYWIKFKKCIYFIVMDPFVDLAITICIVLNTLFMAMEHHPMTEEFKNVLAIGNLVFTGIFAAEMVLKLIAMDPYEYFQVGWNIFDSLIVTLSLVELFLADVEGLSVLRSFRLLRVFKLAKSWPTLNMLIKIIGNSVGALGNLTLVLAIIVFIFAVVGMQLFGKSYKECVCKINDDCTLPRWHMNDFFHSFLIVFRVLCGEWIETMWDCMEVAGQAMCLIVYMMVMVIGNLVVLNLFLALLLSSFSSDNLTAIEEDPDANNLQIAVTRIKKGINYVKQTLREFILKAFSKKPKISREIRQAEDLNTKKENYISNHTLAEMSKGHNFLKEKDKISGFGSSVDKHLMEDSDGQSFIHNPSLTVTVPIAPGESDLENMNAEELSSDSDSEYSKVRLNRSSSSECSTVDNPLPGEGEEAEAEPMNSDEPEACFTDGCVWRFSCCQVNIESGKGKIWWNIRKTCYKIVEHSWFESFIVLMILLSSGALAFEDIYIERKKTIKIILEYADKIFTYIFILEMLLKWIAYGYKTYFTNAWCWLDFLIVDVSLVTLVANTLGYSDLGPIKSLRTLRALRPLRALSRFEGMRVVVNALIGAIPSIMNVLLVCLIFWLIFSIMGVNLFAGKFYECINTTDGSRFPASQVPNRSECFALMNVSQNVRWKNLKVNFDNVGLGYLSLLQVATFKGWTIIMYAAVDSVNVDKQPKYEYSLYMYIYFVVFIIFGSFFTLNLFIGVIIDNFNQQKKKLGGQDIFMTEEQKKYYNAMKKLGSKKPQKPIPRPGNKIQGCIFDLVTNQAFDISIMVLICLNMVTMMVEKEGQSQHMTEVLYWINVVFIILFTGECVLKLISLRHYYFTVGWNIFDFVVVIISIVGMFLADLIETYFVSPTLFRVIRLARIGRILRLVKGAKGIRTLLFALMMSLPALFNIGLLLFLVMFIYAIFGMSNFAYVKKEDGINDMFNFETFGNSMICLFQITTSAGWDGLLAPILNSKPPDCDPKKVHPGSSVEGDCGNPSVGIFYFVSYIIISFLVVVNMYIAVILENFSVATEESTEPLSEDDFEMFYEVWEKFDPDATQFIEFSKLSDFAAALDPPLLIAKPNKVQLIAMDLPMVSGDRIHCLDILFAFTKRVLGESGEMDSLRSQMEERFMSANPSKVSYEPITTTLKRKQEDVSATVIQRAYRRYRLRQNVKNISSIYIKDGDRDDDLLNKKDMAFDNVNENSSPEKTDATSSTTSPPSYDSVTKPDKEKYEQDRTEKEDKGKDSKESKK
- ASSAY REMARKS: Automated patch clamp (Qube 384), internal block of NaV1.7 in HEK293 cells
- Type: cell-based
- APPLIED CONDITIONS: compound in internal solution, read-out: NaV1.7 Intracellular Inhibition
I'd appreciate it if you could supply IC50 values for the items below.

COC(=O)c1cccc(C)c1NC(=O)C[N+]1(Cc2ccccc2)CCCC(C(=O)NCC(C)C)C1.[Br-] (stereo not shown): 1000 to 3000 nM
COC(=O)c1cccc(C)c1NC(=O)C[N+]1(Cc2ccccc2)CCCC(C(=O)N2CCCCCC2)C1.[Br-] (stereo not shown): 1000 to 3000 nM
COC(=O)c1cccc(C)c1NC(=O)C[N+]1(Cc2ccccc2)CCCC(C(=O)NC2CCCCC2)C1 (mixture of isomers): 1000 to 3000 nM

Need IC50 for each of these compounds.
1. CC[N+]1(CC(=O)Nc2c(C)cccc2C(=O)OC)CCCC(C(=O)NC2CCCCC2)C1.[I-] (stereo not shown)
2. CCOC(=O)C[N+]1(CC(=O)Nc2c(C)cccc2C(=O)OC)CCCC(c2ccccc2)C1.O=C([O-])C(F)(F)F (stereo not shown)

["1000 to 3000 nM", "< 1000 nM"]

Items follow; give IC50 for each.
1. COC(=O)c1cccc(C)c1NC(=O)C[N+]1(Cc2ccccc2)CCCC(C(=O)OC2CCCCC2)C1 (mixture of isomers)
2. COC(=O)c1cccc(C)c1NC(=O)C[N+]1(Cc2ccccc2)CCCC(C(=O)N2CCCC2)C1 (mixture of isomers)

1. 3000 to 10000 nM
2. 1000 to 3000 nM

###

- TARGET: NaV1.7 (Homo sapiens, UniProt Q15858)
- Construct: expressed in transfected cells; host or cells: HEK293, tetracycline-inducible
- ASSAY REMARKS: Automated patch clamp (Qube 384), internal block of NaV1.7 in HEK293 cells
- Assay type: cell-based
- APPLIED CONDITIONS: compound in internal solution, read-out: NaV1.7 Intracellular Inhibition
pIC50: −log10 of the molar value.
Please go through the items and note down their pIC50.

State the recorded pIC50 for every item in the following list.
1. COC(=O)c1cccc(C)c1NC(=O)C[N+]1(Cc2ccccc2)CCCC(C(=O)NC(C)C)C1.[Br-] (centres unmarked) [Compound 32]
2. Cc1cccc(C(=O)OC(C)C)c1NC(=O)C[N+]1(Cc2ccccc2)CCCCCC1.[Br-] [Compound 7]
3. CCOC(=O)c1cccc(C)c1NC(=O)C[n+]1cccc(-c2ccccc2)c1 [Compound 67]
4. COC(=O)c1cccc(C)c1NC(=O)C[n+]1cccn1C1CCCCC1.[Br-] [Compound 69]

1: > 6.00; 2: > 6.00; 3: > 6.00; 4: > 6.00

List pIC50 for every entry below, keeping the order given.
1. CCOC(=O)c1cccc(C)c1NC(=O)C[N+]1(Cc2ccccc2)CCCCCC1 [Compound 2]
2. COC(=O)c1cccc(C)c1NC(=O)C[N+]1(Cc2ccccc2)CCCC1 [Compound 5]

["> 6.00", "5.52 to 6.00"]

I would be grateful if you could provide pIC50 for each of the following entries.
1. CC[N+]1(CC(=O)Nc2c(C)cccc2C(=O)OC)CCCC(C(=O)NCC(C)C)C1.[I-] (centres unmarked) [Compound 48]
2. CCCNC(=O)C1CCC[N+](CC(=O)Nc2c(C)cccc2C(=O)OC)(Cc2ccccc2)C1 (mixture of isomers) [Compound 28]

["5.52 to 6.00", "> 6.00"]

###

- TARGET: NaV1.7 (Homo sapiens)
- Construct: expressed in transfected cells; host or cells: HEK293, tetracycline-inducible
- ASSAY REMARKS: Whole cell patch clamp, internal block of NaV1.7 current
- Type: cell-based
- APPLIED CONDITIONS: % inhibition at 1 μM test concentration, compound in internal solution, manual whole cell patch clamp
PROPERTY: NaV1.7 Intracellular Inhibition

Some solved entries appear below for comparison.
COC(=O)c1cccc(C)c1NC(=O)C[N+]1(Cc2ccccc2)CCCC(C(=O)NC(C)C)C1.[Br-] (stereo not drawn): ++ (70-30%)
COC(=O)c1cccc(C)c1NC(=O)C[N+]1(Cc2ccccc2)CCCCCC1: ++++ (>90%)
COC(=O)c1cccc(C)c1NC(=O)C[N+]1(CC(N)=O)CCCC(c2ccccc2)C1 (mixture of isomers): +++ (90-70%)
CC[N+]1(CC(=O)Nc2c(C)cccc2C(=O)OC)CCCC(C(N)=O)C1.[I-] (stereo not drawn): +++ (90-70%)
CC[N+]1(CC(=O)Nc2c(C)cccc2C(=O)OC)CCCC(C(=O)N2CCCCC2)C1.[I-] (stereo not drawn): ++ (70-30%)
CCCN(CCC)C(=O)C1CCC[N+](CC(=O)Nc2c(C)cccc2C(=O)OC)(Cc2ccccc2)C1.[Br-] (stereo not drawn): + (<30%)
CCN(CC)C(=O)C[N+]1(CC(=O)Nc2c(C)cccc2C(=O)OC)CCCC(c2ccccc2)C1 (mixture of isomers): ++ (70-30%)
COC(=O)c1cccc(C)c1NC(=O)C[N+]1(Cc2ccccc2)CCCC(C(=O)NC2CCCC2)C1.[Br-] (stereo not drawn): + (<30%)
CNC(=O)C1CCC[N+](CC(=O)Nc2c(C)cccc2C(=O)OC)(Cc2ccccc2)C1 (mixture of isomers): ++ (70-30%)
Cc1cccc(C(=O)OC(C)(C)C)c1NC(=O)C[n+]1cccc(-c2ccccc2)c1.[Br-]: ++ (70-30%)

Give one value of NaV1.7 Intracellular Inhibition per listed compound.
1. CCNC(=O)C1CCC[N+](CC)(CC(=O)Nc2c(C)cccc2C(=O)OC)C1.O=C[O-] (stereo not drawn)
2. CC[N+]1(CC(=O)Nc2c(C)cccc2C(=O)OC)CCCC(C(=O)NC2CCCCC2)C1.[I-] (stereo not drawn)

+ (<30%)
++ (70-30%)

Batch of 5 compounds: report NaV1.7 Intracellular Inhibition for each.
1. CCCCOC(=O)C1CCC[N+](CC(=O)Nc2c(C)cccc2C(=O)OC)(Cc2ccccc2)C1.[Br-] (mixture of isomers)
2. CC[N+]1(CC(=O)Nc2c(C)cccc2C(=O)OC)CCCC(c2ccccc2)C1 (mixture of isomers)
3. CCN(CC)C(=O)C1CCC[N+](CC(=O)Nc2c(C)cccc2C(=O)OC)(Cc2ccccc2)C1.O=C([O-])C(F)(F)F (stereo not drawn)
4. CC[N+]1(CC(=O)Nc2c(C)cccc2C(=O)OC)CCCC(C(=O)NC)C1.[I-] (stereo not drawn)
5. COC(=O)c1cccc(C)c1NC(=O)C[N+]1(Cc2ccccc2)CCCC(C(=O)N2CCCCCC2)C1.[Br-] (stereo not drawn)

++ (70-30%)
++++ (>90%)
++ (70-30%)
+ (<30%)
++ (70-30%)

Provide NaV1.7 Intracellular Inhibition for all items below, preserving their order.
1. CC[N+]1(CC(=O)Nc2c(C)cccc2C(=O)OC)CCCC(C(=O)OC2CCCCC2)C1 (mixture of isomers)
2. CCc1cccc(C[N+]2(C(CC)C(=O)Nc3c(C)cccc3C(=O)OC)CCCCC2)c1.O=C[O-] (stereo not drawn)
3. CCOC(=O)c1cccc(C)c1NC(=O)C[n+]1cccc(-c2ccccc2)c1
4. COC(=O)c1cccc(C)c1NC(=O)C[N+]1(Cc2ccccc2)CCCC(C(N)=O)C1.[Br-] (stereo not drawn)
5. CCOC(=O)c1cccc(C)c1NC(=O)C[N+]1(Cc2ccccc2)CCCCCC1
6. CCOC(=O)c1cccc(C)c1NC(=O)C[N+]1(Cc2ccccc2)CCCC1.[Br-]
7. CCOC(=O)C1CCC[N+](CC(=O)Nc2c(C)cccc2C(=O)OC)(Cc2ccccc2)C1 (mixture of isomers)

1. ++ (70-30%)
2. +++ (90-70%)
3. +++ (90-70%)
4. ++ (70-30%)
5. ++++ (>90%)
6. +++ (90-70%)
7. +++ (90-70%)

Please give NaV1.7 Intracellular Inhibition, item by item, for the list that follows.
1. CCOC(=O)c1cccc(C)c1NC(=O)C[N+]1(Cc2ccccc2)CCCCCCC1.[Br-]
2. CCCCOC(=O)C1CCC[N+](CC)(CC(=O)Nc2c(C)cccc2C(=O)OC)C1.[I-] (mixture of isomers)
3. COC(=O)C[N+]1(CC(=O)Nc2c(C)cccc2C(=O)OC)CCCC(c2ccccc2)C1 (mixture of isomers)

1. +++ (90-70%)
2. ++ (70-30%)
3. ++ (70-30%)
